From: ChEMBL document CHEMBL3085759

# MIC per entry
System: Candida albicans
Experiment: Antimicrobial activity against Candida albicans ATCC 90028 by Alamar blue method
Type: functional, organism-based
MEASUREMENT TYPE: MIC

>  <STRUCTURE NOTATION>
Fc1ccc(Oc2cc3ccccc3[n+](CCCCCC3CCCCC3)c2)cc1.[I-]

>  <RESULT>
> 20 µg/mL

$$$$
>  <STRUCTURE NOTATION>
Clc1cc(Cl)cc(CSc2cc3ccccc3[n+](CCCCCC3CCCCC3)c2)c1.[I-]

>  <RESULT>
5 µg/mL

$$$$
>  <STRUCTURE NOTATION>
Clc1ccccc1CSc1cc2ccccc2[n+](CCCCCC2CCCCC2)c1.[I-]

>  <RESULT>
10 µg/mL

$$$$
>  <STRUCTURE NOTATION>
Cc1ccc(CSc2cc3ccccc3[n+](CCCCCC3CCCCC3)c2)cc1.[I-]

>  <RESULT>
2.5 µg/mL

$$$$
>  <STRUCTURE NOTATION>
Cc1ccccc1CSc1cc2ccccc2[n+](CCCCCC2CCCCC2)c1.[I-]

>  <RESULT>
2.5 µg/mL

$$$$

###

Test system: Nakaseomyces glabratus
Assay: Antimicrobial activity against Candida glabrata by Alamar blue method
Format: functional, organism-based

>  <STRUCTURE NOTATION>
Cc1cc(C)c(CSc2cc3ccccc3[n+](CCCCCC3CCCCC3)c2)c(C)c1.[I-]

>  <MFC>
5 µg/mL

$$$$
>  <STRUCTURE NOTATION>
Cc1cccc(CSc2cc3ccccc3[n+](CCCCCC3CCCCC3)c2)c1.[I-]

>  <MFC>
10 µg/mL

$$$$
>  <STRUCTURE NOTATION>
N#Cc1cccc(CSc2cc3ccccc3[n+](CCCCCC3CCCCC3)c2)c1.[I-]

>  <MFC>
10 µg/mL

$$$$
>  <STRUCTURE NOTATION>
Brc1cccc(CSc2cc3ccccc3[n+](CCCCCC3CCCCC3)c2)c1.[I-]

>  <MFC>
2.5 µg/mL

$$$$
>  <STRUCTURE NOTATION>
[I-].c1ccc(CCSc2cc3ccccc3[n+](CCCCCC3CCCCC3)c2)cc1

>  <MFC>
> 20 µg/mL

$$$$
>  <STRUCTURE NOTATION>
Cc1ccccc1CSc1cc2ccccc2[n+](CCCCCC2CCCCC2)c1.[I-]

>  <MFC>
5 µg/mL

$$$$
>  <STRUCTURE NOTATION>
Fc1ccccc1CSc1cc2ccccc2[n+](CCCCCC2CCCCC2)c1.[I-]

>  <MFC>
20 µg/mL

$$$$
>  <STRUCTURE NOTATION>
N#Cc1ccc(CSc2cc3ccccc3[n+](CCCCCC3CCCCC3)c2)cc1.[I-]

>  <MFC>
20 µg/mL

$$$$
>  <STRUCTURE NOTATION>
Fc1cccc(CSc2cc3ccccc3[n+](CCCCCC3CCCCC3)c2)c1.[I-]

>  <MFC>
5 µg/mL

$$$$

###

Tested on: Candida albicans
Test: Antimicrobial activity against Candida albicans ATCC 90028 by Alamar blue method
Format: functional, organism-based
# MIC per entry
MEASUREMENT TYPE: MIC (µg/mL)

>  <STRUCTURE NOTATION>
[I-].c1ccc(Oc2cc3ccccc3[n+](CCCCCC3CCCCC3)c2)cc1

>  <LIMIT QUALIFIER>
>

>  <RESULT>
20

$$$$
>  <STRUCTURE NOTATION>
COc1ccccc1CSc1cc2ccccc2[n+](CCCCCC2CCCCC2)c1.[I-]

>  <LIMIT QUALIFIER>
=

>  <RESULT>
5

$$$$
>  <STRUCTURE NOTATION>
Cc1cc(C)c(CSc2cc3ccccc3[n+](CCCCCC3CCCCC3)c2)c(C)c1.[I-]

>  <LIMIT QUALIFIER>
>

>  <RESULT>
20

$$$$
>  <STRUCTURE NOTATION>
Fc1cccc(CSc2cc3ccccc3[n+](CCCCCC3CCCCC3)c2)c1.[I-]

>  <LIMIT QUALIFIER>
=

>  <RESULT>
5

$$$$
>  <STRUCTURE NOTATION>
Brc1ccccc1CSc1cc2ccccc2[n+](CCCCCC2CCCCC2)c1.[I-]

>  <LIMIT QUALIFIER>
=

>  <RESULT>
10

$$$$
>  <STRUCTURE NOTATION>
Brc1ccc(CSc2cc3ccccc3[n+](CCCCCC3CCCCC3)c2)cc1.[I-]

>  <LIMIT QUALIFIER>
=

>  <RESULT>
1.3

$$$$
>  <STRUCTURE NOTATION>
CC(C)(C)c1ccc(CSc2cc3ccccc3[n+](CCCCCC3CCCCC3)c2)cc1.[I-]

>  <LIMIT QUALIFIER>
>

>  <RESULT>
20

$$$$
>  <STRUCTURE NOTATION>
[I-].c1ccc2cc(Sc3cc4ccccc4[n+](CCCCCC4CCCCC4)c3)ccc2c1

>  <LIMIT QUALIFIER>
=

>  <RESULT>
1.3

$$$$
>  <STRUCTURE NOTATION>
Cc1cccc(CSc2cc3ccccc3[n+](CCCCCC3CCCCC3)c2)c1.[I-]

>  <LIMIT QUALIFIER>
=

>  <RESULT>
5

$$$$
>  <STRUCTURE NOTATION>
FC(F)(F)c1cccc(CSc2cc3ccccc3[n+](CCCCCC3CCCCC3)c2)c1.[I-]

>  <LIMIT QUALIFIER>
=

>  <RESULT>
2.5

$$$$
